Data provenance: paper PMC5590943

# tested.system: AMPA
# procedure.summary: Binding assay, [3H]AMPA, rat cerebral cortex membranes
# experimental.setup: read-out: Ki, glutamate binding site; n = 2
observation.type: Ki

Lab note: O=C1c2cc3nnn(CCc4cccc(F)c4)c(=O)c3cc2OCN1C1CC1 [S 47445] gave Ki of > 10 µM
